measured.target: human FPR2 (Homo sapiens (Human), UniProt P25090)
Sequence (P25090 whole entry): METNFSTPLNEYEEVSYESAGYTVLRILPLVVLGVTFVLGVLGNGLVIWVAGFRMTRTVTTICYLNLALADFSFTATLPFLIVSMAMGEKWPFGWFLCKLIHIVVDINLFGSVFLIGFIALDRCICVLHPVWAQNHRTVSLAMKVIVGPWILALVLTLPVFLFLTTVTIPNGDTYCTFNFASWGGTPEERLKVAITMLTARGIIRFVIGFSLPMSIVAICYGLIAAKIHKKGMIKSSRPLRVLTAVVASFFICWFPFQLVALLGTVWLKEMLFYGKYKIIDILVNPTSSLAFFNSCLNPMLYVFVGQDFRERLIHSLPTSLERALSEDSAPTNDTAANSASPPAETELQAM
assay.summary: FPR2 cyclic adenosine monophosphate (cAMP) assay
Format: cell-based
condition.notes: CHO cells overexpressing human FPR2; inhibition of forskolin (5 μM) stimulated cAMP; read-out: hFPR2 cAMP2 EC50
pEC50: −log10 of the molar value.
result.type: pEC50

Worked examples, 3 compounds total:
compound | pEC50
N#Cc1ccccc1-c1ccc(N2CCC[C@@H](NC(=O)Nc3ccc(Cl)cc3)C2=O)cc1 | 9.09
CS(=O)(=O)Nc1ccccc1-c1ccc(N2CCC[C@@H](NC(=O)Nc3ccc(C(F)(F)F)cc3F)C2=O)cc1 | 9.20
CS(=O)(=O)Nc1ccccc1-c1ccc(N2C[C@H](O)C[C@@H](NC(=O)Nc3ccc(Cl)cn3)C2=O)cc1 | 8.70

I = CS(=O)(=O)Nc1ccccc1-c1ccc(N2CCC[C@@H](NC(=O)Nc3ccc(OC(F)F)nc3)C2=O)cc1
II = CS(=O)(=O)Nc1ccccc1-c1ccc(N2C[C@H](O)C[C@@H](NC(=O)Nc3ccc(Cl)cc3F)C2=O)cc1
Which value of pEC50 is smaller, the one for I or the one for II ? The response must carry the label of the picked entry. I
(I: 7.77, II: 9.77)

a = CS(=O)(=O)c1ccc(-c2ccc(N3CCCC(NC(=O)Nc4ccc(C(F)(F)F)cc4)C3=O)cc2)cc1 (stereo not shown)
b = NC(=O)c1ccccc1-c1ccc(N2CCC[C@@H](NC(=O)Nc3ccc(F)cc3)C2=O)cc1
Which value of pEC50 is smaller, the one for a or the one for b ? The response must carry the label of the picked entry. a

* * *

measured.target: UniProt P25090
assay.summary: FPR2 cyclic adenosine monophosphate (cAMP) assay
Type: cell-based
condition.notes: CHO cells overexpressing human FPR2; inhibition of forskolin (5 μM) stimulated cAMP; read-out: hFPR2 cAMP2 EC50
pEC50: −log10 of the molar value.
result.type: pEC50

compound | endpoint.result
Cc1ccc(NC(=O)N[C@@H]2CCCN(c3ccc(-c4ccccc4C(N)=O)cc3)C2=O)c(C)c1 | 6.28
CC(C)(C)NS(=O)(=O)c1ccccc1-c1ccc(N2CCC[C@@H](NC(=O)Nc3ccc(Cl)cc3)C2=O)cc1 | 9.34
COc1ccc(NC(=O)N[C@@H]2CCCN(c3ccc(-c4ccccc4C(N)=O)cc3)C2=O)cc1Cl | 6.11

A = O=C(Nc1ccc(Cl)cc1)N[C@@H]1CCCN(c2ccc(-c3ccccc3CO)cc2)C1=O
B = NC(=O)c1ccc(-c2ccc(N3CCCC(NC(=O)Nc4ccc(C(F)(F)F)cc4)C3=O)cc2)cc1 (stereo not drawn)
C = CS(=O)(=O)Nc1ccccc1-c1ccc(N2CCC[C@@H](NC(=O)Nc3ccc(Cl)cc3F)C2=O)c(Cl)c1
D = COc1cc(-c2ccccc2NS(C)(=O)=O)ccc1N1CCC[C@@H](NC(=O)Nc2ccc(C(F)(F)F)cn2)C1=O
E = CS(=O)(=O)Nc1ccccc1-c1ccc(N2C[C@H](O)C[C@H](NC(=O)Nc3ncc(Cl)cc3F)C2=O)cc1
// smallest pEC50 at index 0, largest at the end List the labels in the requested order. B, D, C, E, A
(B: 6.25, D: 7.77, C: 8.26, E: 8.65, A: 9.17)

* * *

measured.target: human FPR2 (Homo sapiens (Human))
assay.summary: FPR2 cyclic adenosine monophosphate (cAMP) assay
Type: cell-based
condition.notes: CHO cells overexpressing human FPR2; inhibition of forskolin (5 μM) stimulated cAMP; read-out: hFPR2 cAMP2 EC50
result.type: EC50 (nM)

molecule | EC50 (nM)
O=C(Nc1ccc(Cl)cc1)NC1CCCN(c2ccc(-c3cccnc3)cc2)C1=O (stereo not shown) | 9.3
NC(=O)c1ccccc1-c1ccc(N2CCC[C@@H](NC(=O)Nc3ccc(C(F)(F)F)cc3)C2=O)cc1 | 10
O=C(Nc1ccc(C(F)(F)F)cc1)N[C@@H]1CCCN(c2ccc(-c3cccc(F)c3F)cc2)C1=O | 9
COc1ccc(NC(=O)N[C@@H]2CCCN(c3ccc(-c4ccccc4NS(C)(=O)=O)cc3)C2=O)cc1 | 0.28

P = CS(=O)(=O)Nc1ccccc1-c1ccc(N2C[C@H](O)C[C@@H](NC(=O)Nc3ccc(Cl)cc3)C2=O)cc1
Q = CS(=O)(=O)Nc1ccccc1-c1ccc(N2CCC[C@@H](NC(=O)Nc3ccc(C(F)(F)F)cn3)C2=O)cc1
R = Cc1ccncc1-c1ccc(N2CCCC(NC(=O)Nc3ccc(C(F)(F)F)cc3)C2=O)cc1 (stereo not shown)
Ordering criterion: EC50; begin with the maximum. List the labels in the requested order. R, Q, P
(R: 330 nM, Q: 8.1 nM, P: 0.35 nM)
